system: A549; experiment: Growth inhibition of human A549 cells after 72 hrs by SRB assay; assay type: functional; details: A549, 72 h
// classify: if (GI50 < 300 nM) 1 (yes) else 0 (no)

Compound	Class Label
COc1cc([C@@H]2c3cc4c(cc3C=C(C=O)[C@H]2C(=O)OCc2ccc(Cn3cnc5c(Cl)ncnc53)cc2)OCO4)cc(OC)c1OC	1 (yes)
COc1cc([C@@H]2c3cc4c(cc3C=C(C=O)[C@H]2C(=O)OCCCBr)OCO4)cc(OC)c1OC	1 (yes)
COc1cc([C@@H]2c3cc4c(cc3C=C(C=O)[C@H]2C(=O)OCc2ccc(CBr)cc2)OCO4)cc(OC)c1OC	1 (yes)
COC(=O)[C@@H]1C(C=O)=Cc2cc3c(cc2[C@H]1c1cc(OC)c(OC)c(OC)c1)OCO3 [PODOPHYLLIC ALDEHYDE]	1 (yes)
COc1cc([C@@H]2c3cc4c(cc3C=C(C=O)[C@H]2C(=O)OCCCCCCn2cnc3cncnc32)OCO4)cc(OC)c1OC	0 (no)
COc1cc([C@@H]2c3cc4c(cc3C=C(C=O)[C@H]2C(=O)OCCCn2cnc3c(Cl)ncnc32)OCO4)cc(OC)c1OC	0 (no)
COc1cc(-c2c(C(=O)OCCCn3cnc4c(Cl)ncnc43)c(C=O)cc3cc4c(cc23)OCO4)cc(OC)c1OC	0 (no)

Attribution: ChEMBL document CHEMBL2150917
